Exercise: for every item that follows, state its recorded melting point.
One number for each entry, in °C.

Cc1c(CCCCCCCCCC(=O)O)cccc1C(=O)c1ccc(Cl)cc1 : 74

Here's the next entry for you.
For reference, reported melting point for COc1cc2c(-c3cc4cc(Cl)cnc4[nH]3)cn(C)c2cc1OC stands at 282

* * *

measured metric: melting point

COc1cc(OC)c2c(=O)[nH]c(-c3cccc(-c4ccc(S(C)=O)s4)c3)nc2c1 (stereo unspecified) : 289 to 290 °C
CN(c1ccc(I)cc1)S(C)(=O)=O : 106 to 107 °C
CSCCOC(=O)N(C)c1cnc(-c2cncc(F)c2)s1 : 115 to 117 °C
O=C(O)c1sc(Cl)nc1-c1ccccc1 : 170 to 171 °C
COc1ccc(CCC(N[C@@H](C)C(=O)N(CC(=O)O)C2Cc3ccccc3C2)C(=O)O)cc1OC (stereo partly specified) : 160 to 165 °C

Please state melting point for every compound in the list that follows.
1. CCCCCCCCCCCCCCOc1ccc(C(=O)OCC)cc1
2. Nc1nc(Cl)c2ncn(C3C=CC(O)C3)c2n1 (stereo unspecified)
3. COC(=O)c1sc(C(C)(C)C)cc1NC(=O)Nc1ccc(F)cc1
4. CCOC(=O)C(C#N)=NOC(=O)OC
5. CC(=O)OCC1OC(CCOS(C)(=O)=S)C(OC(C)=O)C(OC(C)=O)C1OC(C)=O (stereo unspecified)
6. CCOC(=O)c1cnc2c(C)csc2c1NCc1ccccc1

stdout:
34 to 35 °C
160 to 162 °C
160 to 162 °C
69 to 71 °C
115 to 116 °C
99 to 100 °C
